Provenance of the data: the RNAGym collection of RNA variant scans (doi:10.7554/elife.80360)

B1: HDV Ribozyme (parent)
chain: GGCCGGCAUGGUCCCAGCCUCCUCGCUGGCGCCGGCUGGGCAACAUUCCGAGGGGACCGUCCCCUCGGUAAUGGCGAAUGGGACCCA

Variants of: B1
Method description: self-cleavage, relative activity (ratio to wild type); higher = more cleavage; co-transcriptional
Measured self-cleavage determines class: class 0 = under 0.1, class 1 = from 0.1 up to 0.3, class 2 = 0.3 and over

INSERT INTO measurements (mut, classification) VALUES
  ('G17C G68C', 'class 1'),
  ('C24A C48G', 'class 2'),
  ('C49U C75U', 'class 1'),
  ('G6A C18U', 'class 1'),
  ('G2U U47C', 'class 0'),
  ('G11A G59C', 'class 2'),
  ('U20A G53A', 'class 1'),
  ('U12A G39U', 'class 0'),
  ('C22U C41U', 'class 2'),
  ('G2C G68C', 'class 0'),
  ('A43G C49G', 'class 2'),
  ('A42C A77G', 'class 1'),
  ('C36G U72C', 'class 0'),
  ('U46A C57U', 'class 2'),
  ('U23G C26U', 'class 2'),
  ('U37A G67A', 'class 1'),
  ('C26A A43U', 'class 2'),
  ('U65A A83G', 'class 2'),
  ('U12A A70G', 'class 1'),
  ('G25C A83G', 'class 0'),
  ('C7A G17U', 'class 1');
